- System: Staphylococcus aureus (Isolate ID ATCC 29213)
- protocol_notes: Bacterial assay: MIC by broth microdilution or agar dilution (CLSI), S. aureus ATCC 29213
- Type: cell-based
- measurement_context: Staphylococcus aureus, ATCC29213, read-out: S. aureus MIC (μg/mL) Activity Range, S. aureus (ATCC29213)
parameter: MIC

> print(dat)
                                   molecule  parameter           result
1  Cc1nn(C)cc1CNC(=O)OCC(Oc1ccc(F)c(C(N)=O)c1F)c1nc(-c2ccc(C(F)(F)F)cc2)c(Br)o1 (stereo not shown)        MIC  0.25 to 1 µg/mL
2  CNCC(=O)OCC(Oc1ccc(F)c(C(N)=O)c1F)c1nc(-c2ccc(C(F)(F)F)cc2)c(Br)o1 (stereo not shown)        MIC  0.25 to 1 µg/mL
3  NC(=O)c1c(F)ccc(O[C@H](CO)c2nc(-c3ccc(F)cc3)co2)c1F [Compound 278B]        MIC       > 16 µg/mL
4  CC(=O)OCCC(Oc1ccc(F)c(C(N)=O)c1F)c1nc(-c2ccc(C(F)(F)F)cc2)c(Br)o1 (stereo not shown)        MIC    1 to 16 µg/mL

---

- Test system: Staphylococcus aureus (Isolate ID ATCC 29213)
- protocol_notes: Bacterial assay: MIC by broth microdilution or agar dilution (CLSI), S. aureus ATCC 29213
- Assay type: cell-based
- measurement_context: Staphylococcus aureus, ATCC29213, read-out: S. aureus MIC (μg/mL) Activity Range, S. aureus (ATCC29213)
- Method: Compounds are tested for antimicrobial activity by susceptibility testing in liquid or on solid media. […] Compound MICs were determined to be in the following activity ranges “A” activity≦0.25 μg/mL; “B” activity>0.25 μg/mL-1.0 μg/mL; “C” activity>1.0 μg/mL-16 μg/mL; “D” activity>16 μg/mL and ND=not determined. […]
parameter: MIC

> print(dat)
                                   compound         result
1  CNC(=O)C(Oc1ccc(F)c(C(N)=O)c1F)c1nc(-c2ccc(C(F)(F)F)cc2)c(Cl)o1 (stereo not shown)  1 to 16 µg/mL
2  COc1ccc(-c2nc(C(CO)Oc3ccc(F)c(C(N)=O)c3F)oc2Br)nc1 (stereo not shown)     > 16 µg/mL
3  CN(Cc1ccccn1)C(=O)OCC(Oc1ccc(F)c(C(N)=O)c1F)c1nc(-c2ccc(C(F)(F)F)cc2)c(Br)o1 (stereo not shown)  1 to 16 µg/mL
4  C[C@H](O)[C@@H](Oc1ccc(F)c(C(N)=O)c1F)c1nc(-c2ccc(OC(F)F)cc2)c(Br)o1   < 0.25 µg/mL

---

- protocol_notes: Pharmacokinetic assay: plasma concentration by LC/MS/MS after single intravenous or peroral dose of 3 mg/kg
- Type: in vivo
- measurement_context: 3 mg/kg IV dosing in mice
Outcome: TRUE for AUC of at least 500 ng·h/mL; FALSE for anything lower.

> print(dat)
                                   compound  class.name
1  CC(Oc1ccc(F)c(C(N)=O)c1F)c1nc(-c2ccc(OC(F)(F)F)cc2)c(Br)o1 (centres unmarked)        TRUE
2  CCCc1oc(COc2ccc(F)c(C(N)=O)c2F)nc1-c1ccc(Cl)cc1       FALSE
3  CC(Oc1ccc(F)c(C(N)=O)c1F)c1nc(-c2ccc(C(F)(F)F)cc2)c(Br)o1 (centres unmarked)        TRUE
4  CC(Oc1ccc(F)c(C(N)=O)c1F)c1nc(-c2ccc(OC(F)(F)F)cc2)c(Cl)o1 (centres unmarked)        TRUE
